Cited source: patent US20210206763A1

system: AP-1 Transcription Factor duplex DNA sequence; assay: FRET DNA melting assay with transcription factor duplex DNA; type: binding; conditions: 1 μM ligand concentration; 24 hours incubation
Attribute: ΔTm AP-1 (2ND transition)
State just the number; it will be interpreted in °C.

Solved entries:
| smiles.code | target | meas.value |
| --- | --- | --- |
| COC(=O)c1cc2cc(NC(=O)c3cc(NC(=O)CCCOc4cc5c(cc4OC)C(=O)N4CCCC[C@H]4C=N5)cn3C)ccc2s1 | AP-1 Transcription Factor duplex DNA sequence | 19 |
| COC(=O)c1cc2cc(NC(=O)c3nc(NC(=O)CCCOc4cc5c(cc4OC)C(=O)N4CCCC[C@H]4C=N5)cn3C)ccc2s1 | AP-1 Transcription Factor duplex DNA sequence | 18 |

Given the compound COC(=O)c1cc(-c2ccc(NC(=O)c3nc(NC(=O)CCCOc4cc5c(cc4OC)C(=O)N4CCCC[C@H]4C=N5)cn3C)cc2)cn1C , what is its reported ΔTm AP-1 (2ND transition)?
13

Reported ΔTm AP-1 (2ND transition), compound COC(=O)c1cc(-c2ccc(NC(=O)c3cc(NC(=O)CCCOc4cc5c(cc4OC)C(=O)N4CCCC[C@H]4C=N5)cn3C)cc2)cn1C : ____
15
